Tested on: Staphylococcus aureus ATCC 49951
PROTOCOL SUMMARY: MIC by broth microdilution (CLSI) against Staphylococcus aureus ATCC 49951
Format: cell-based
EXPERIMENTAL CONDITIONS: ATCC49951; Staphylococcus aureus ATCC 49951, in vitro; read-out: MIC
Where a name gives a salt, the structure may show the parent alone.
MEASURED QUANTITY: MIC (µg/mL)
Write the answer as a number in µg/mL, unit excluded.

Prompt: MIC for C[C@@H]1CC[C@@]23CCC(=O)[C@H]2[C@]1(C)[C@H](OC(=O)CSC1CCCNCC1)C[C@](C)(CCNc1ccc(CN)cc1)[C@@H](O)[C@@H]3C (stereo partly shown) [Example 143, trihydrochloride] ?
Response: 0.125

Prompt: Same for C[C@@H]1CC[C@@]23CCC(=O)[C@H]2[C@]1(C)[C@H](OC(=O)CSc1ccc(CN)cn1)C[C@](C)(CNCc1ccc(CN)cc1)[C@@H](O)[C@@H]3C
Response: 0.125
